This collection of values is drawn from patent US20200131180A1.

target system: human mAChR M1 (Homo sapiens, UniProt P11229)
Sequence (P11229 whole entry): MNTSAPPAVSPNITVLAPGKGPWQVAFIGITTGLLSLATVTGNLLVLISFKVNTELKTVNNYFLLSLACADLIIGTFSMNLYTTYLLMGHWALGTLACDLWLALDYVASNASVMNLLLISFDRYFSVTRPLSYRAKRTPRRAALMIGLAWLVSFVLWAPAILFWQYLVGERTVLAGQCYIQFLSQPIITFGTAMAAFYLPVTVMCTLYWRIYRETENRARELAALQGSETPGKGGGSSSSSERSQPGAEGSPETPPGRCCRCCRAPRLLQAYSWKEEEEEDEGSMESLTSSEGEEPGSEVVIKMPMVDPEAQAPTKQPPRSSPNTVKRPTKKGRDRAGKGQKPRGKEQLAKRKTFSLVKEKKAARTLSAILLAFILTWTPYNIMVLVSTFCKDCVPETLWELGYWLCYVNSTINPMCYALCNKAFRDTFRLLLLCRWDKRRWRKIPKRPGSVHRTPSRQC
assay procedure: mAChR M1 cell-based functional assay (calcium mobilization, PAM activity)
study conditions: CHO-K1 cells expressing hM1; calcium flux (Fluo-4); concentration-dependent increase in the EC20 acetylcholine response
quantity kind: EC50 (µM)

Example compounds with recorded EC50:
{"columns": ["given smiles", "readout units", "readout value"],
 "data": [
  ["Cn1cc(-c2cc(F)c(Cc3cc(C(=O)N[C@H]4CCCC[C@@H]4O)c4ncnn4c3)c(F)c2)cn1", "µM", 0.387],
  ["Cn1cc(-c2ccc(Cc3cc(C(=O)N[C@H]4CCC[C@@H]4O)c4ncnn4c3)cn2)cn1", "µM", 3.77]
]}

[A] Cn1ccc(-c2ccc(Cc3cc(C(=O)N[C@@H]4CCOC[C@H]4O)c4nccn4c3)cc2)n1
[B] O=C(N[C@H]1CCOC[C@@H]1O)c1cc(Cc2ccc(-n3cccn3)cc2)cn2ncnc12
[C] Cc1nc(-c2ccc(Cc3cc(C(=O)NC4CCOCC4)c4ncnn4c3)cc2)co1
[D] Cc1cn2cc(Cc3ccc(-c4ccn(C)n4)cc3)cc(C(=O)N[C@H]3CCOC[C@@H]3O)c2n1
Arrange by EC50, high to low. List the labels in the requested order. C, D, B, A

* * *

target system: human mAChR M1 (Homo sapiens)
assay procedure: mAChR M1 cell-based functional assay (calcium mobilization, PAM activity)
study conditions: CHO-K1 cells expressing hM1; calcium flux (Fluo-4); potentiation of EC20 acetylcholine response
quantity kind: Emax (%)

Example compounds with recorded Emax:
{"columns": ["given smiles", "target system", "Emax, %"],
 "data": [
  ["Cc1c(Cc2ccc(-c3cnn(C)c3)cc2F)cc(C(=O)N[C@H]2CCOC[C@@H]2O)c2nccn12", "human mAChR M1 (Homo sapiens)", 72],
  ["Cc1nc(-c2ccc(Cc3cc(C(=O)N[C@H]4CCOC[C@@H]4O)c4ncnn4c3)cc2)co1", "human mAChR M1 (Homo sapiens)", 82],
  ["Cn1cc(-c2ccc(Cc3cc(C(=O)N[C@H]4CCOC[C@@H]4O)c4ncnn4c3)cc2)cn1", "human mAChR M1 (Homo sapiens)", 85],
  ["O=C(N[C@H]1CCOC[C@@H]1O)c1cc(Cc2ccc(-n3cccn3)nc2)cn2ccnc12", "human mAChR M1 (Homo sapiens)", 67],
  ["Cn1cc(-c2ccc(Cc3cc(C(=O)N[C@H]4CCCC[C@@H]4O)c4nccn4c3)cc2)cn1", "human mAChR M1 (Homo sapiens)", 89],
  ["Cn1cc(-c2cc(F)c(Cc3cc(C(=O)N[C@H]4CCOC[C@@H]4O)c4ncnn4c3)c(F)c2)cn1", "human mAChR M1 (Homo sapiens)", 84]
]}

[P] O=C(N[C@H]1CCCC[C@@H]1O)c1cc(Cc2ccc(-n3cccn3)cc2)cn2cnnc12
[Q] O=C(N[C@H]1CCCC[C@@H]1O)c1cc(Cc2ccc(C(F)(F)F)nc2)cn2ccnc12
Lower value of Emax belongs to which: P or Q ? // respond with label for picked entry Q
(Q: 46%, P: 74%)

[A] Cn1ccc(-c2cc(F)c(Cc3cc(C(=O)N[C@H]4CCOC[C@@H]4O)c4ncnn4c3)c(F)c2)n1
[B] Cn1cc(-c2ccc(Cc3cc(C(=O)NC4CCOCC4)c4ncnn4c3)cc2)cn1
Lower value of Emax belongs to which: A or B ? // respond with label for picked entry B
(B: 35%, A: 76%)
